Ref: the RNAGym collection of RNA variant scans (doi:10.1002/anie.201605470)

B1: Osa-1-4 twister ribozyme (parent)
chain: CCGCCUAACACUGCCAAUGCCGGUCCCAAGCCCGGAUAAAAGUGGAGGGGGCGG

# Variants of: B1
# PROTOCOL SUMMARY: self-cleavage, relative activity (ratio to wild type); higher = more cleavage; co-transcriptional

{"columns": ["RESIDUE SEQUENCE", "self-cleavage"],
 "data": [
  ["CCGCCUAUCACUGCCAAUGCCGGUCCCAAGCCCGAAUAAAAGUGGAGGGGGCGG [A8U G35A]", 0.27],
  ["CCGCCUAACACUGCCAAUGCCGGUCCCAAGCCCGUAUAAAAGUGGAGGGGGGGG [C52G G35U]", 0.91],
  ["CCGCCUAACACUGCCAAUGCCGGUCCCAAGCCCGGAUAACAGUGGAAGGGGCGG [A40C G47A]", 0.05],
  ["CCGCCUAACACUGCCAAUGCCGGUCCCAAGCCCAGAUAAAAGUGGAGGGGGCGG [G34A]", 0.86],
  ["CCGCCUAACACUGCCAAUGCCGGGCCCAAGCCCGGAUAAAAGUGGAGGGUGCGG [G50U U24G]", 0.02],
  ["CCGCCUAAGACUGCCAAUGCCGGUCCCAAGCCCGGAUAAAACUGGAGGGGGCGG [C9G G42C]", 0.07],
  ["CCGCCUAACACUGCCAAUGCCGGUCCCAAGACCGGAUAAAAGUGGAGGGGCCGG [C31A G51C]", 0.02],
  ["CCGCCUAACAGUGCCAAUGCCGGUCGCAAGCCCGGAUAAAAGUGGAGGGGGCGG [C11G C26G]", 0.1],
  ["CCGCCUAACACUGCCAAUGCCGGUCCCAAGCGGGGAUAAAAGUGGAGGGGGCGG [C32G C33G]", 0.05],
  ["CCGCCUAACACUGCCAAUGCCGGUCCGAAGCCCGGAUAAAACUGGAGGGGGCGG [C27G G42C]", 0.07],
  ["CCGCCUAACACUGCCAAUGCCGGUCCCAAGCCCGGAUAAAGGUGGAGGGGGCAG [A41G G53A]", 0.61],
  ["CCGCCUAACACUGCUAAUGCCGGUCCCAAGUCCGGAUAAAAGUGGAGGGGGCGG [C15U C31U]", 0.06],
  ["CCGCCUAACACUGCCAAUGGCGGUCCCAAGACCGGAUAAAAGUGGAGGGGGCGG [C20G C31A]", 0.02],
  ["CCGCCUAACACUGCGAAUGCCGGUCCCAAGACCGGAUAAAAGUGGAGGGGGCGG [C15G C31A]", 0.03],
  ["CCGCCUAACACUACCAAUGCCGGCCCCAAGCCCGGAUAAAAGUGGAGGGGGCGG [G13A U24C]", 0.04],
  ["CCGCCUAACACUGCCAAUGCCGGUCCCAAGCCCGGAUAAAAGUGAAGGGGGCGC [G45A G54C]", 0.1],
  ["CCGCCUAACACUGCCAAUGCCGGUCCCACGCGCGGAUAAAAGUGGAGGGGGCGG [A29C C32G]", 0.03],
  ["CCGCCUAAUACUGCCAAUGCCGGUCCCAAGCCCGGAUAAAAGUGGAGAGGGCGG [C9U G48A]", 0.03],
  ["CCGCCUAACACUGCCAAUGCCGGUCCCAAGCCCGCAUAAAGGUGGAGGGGGCGG [A41G G35C]", 0.15],
  ["CCGCCUAACACUGCCAAUGCCGGUCCCAAGCCCGGAUAAAAGUGGAGGGGUGGG [C52G G51U]", 0.48],
  ["CCGCCUAACACUGCCAAUGCCGGUCCCAAGACUGGAUAAAAGUGGAGGGGGCGG [C31A C33U]", 0.03],
  ["CCGCCUAUCACUGCCAAUGCCGGUCCCAAGCCCGGAUAAAAAUGGAGGGGGCGG [A8U G42A]", 0.1]
]}
